This listing pairs variants with measured yeast fitness.
B1: tRNA (parent)
chain: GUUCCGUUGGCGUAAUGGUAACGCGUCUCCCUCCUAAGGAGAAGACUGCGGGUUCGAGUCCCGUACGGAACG

- Variants of: B1
- Assay method text: yeast fitness relative to wild type (ratio to wild type); higher = fitter; tRNA-Arg(CCU), competitive growth, 37 C, YPD
Fewer inactive variants are shown than the library holds.
Test readout: yeast fitness

>>> df
                               sequence_text  obs_value
 0  GUUCGGUUGGCGUAACGGUAACGCGUCUCCCUCCUAAGCAGAAGACUGCGGGUUCGUGUCCCGUACGGAACG [C5G U16C G39C A57U]      ≤ 0.5
 1  GUUCUGUUGGCGUAAUGGUAACGCGUCUCCCUCAUAAGGAGAAGACUGCGGGUUCAAGUCCCGUACGGAACG [C5U C34A G56A]      ≤ 0.5
 2  GUUCCGUUGGCGUAAUGGUAACGCGUCUCCCUCCUAAGGAGAGGACUGCGGGUUCGAGUCCCGUACGGAUCG [A43G A70U]       1.01
 3  GUUACGUUGGCGUAAAGGUAACGCGUCUCCCUCCUAAGGAGAAGACUGCGGGUUCGAGUCCCGUACGGAACG [C4A U16A]      0.823
 4  GUUACGUUGGCGUAAUGGUAACGCGUCUCCCUCCUAAGGAGAAGACUGCGGGUUCAAGUCCCGUACGGAACG [C4A G56A]       0.88
 5  GUUCCGUUGGCGUAAUGGUAACGCGUCUUCCUCCUAAGGAGAAGACUGCGGGUACGAGUCCCGUACGGAACG [C29U U54A]      0.627
 6  GUUCCGUUGGCGUAAUGGUAACGCGUCUCCCUCUUAAGGAGCAGACUGCGGGUUCCAGUCCCGUACGGAACG [C34U A42C G56C]      ≤ 0.5
 7  GCUCCGUUGGCGUAAAGGUAACGCGUCUCCCUCCUAAGGGGAAGACUACGGGUUCGAGUCCCGUACGGAACG [U2C U16A A40G G48A]      ≤ 0.5
 8  GUUCCCUUGGCGUAAUGGUAACGCGUCUCCCUCCUAAGGAGAAGACUGCGGGUUCGAGUCCCGUGUGGAACG [G6C A65G C66U]       0.84
 9  GUUCCGUUGGCGUAAUGGUAACGCGUCUCCCUCCAAGGGAGAAGACUGAGGGUUCGAGUCCCGUACGGAACG [U35A A37G C49A]      ≤ 0.5
10  GUUCCGUUGGCGUAAUGGUAACGCGUCUCCCUUCUCGGGAGAAGACUGCGGGUUCGAGUCCCGCACGGAACG [C33U A36C A37G U64C]      ≤ 0.5
11  GUUCCGUUGGCGUAAUGGUAACGGGUCUCCUUCCUAAGGAGAAGACUGCCGGUUCGAGUGCCAUACGGAACG [C24G C31U G50C C60G G63A]      0.545
12  GUCCCGUUGGCGUAAGGGAAACGCGUCUCCCUCCUAAGGAGAUGACUGCGGGUUCGUGUCCCGUACGGAACG [U3C U16G U19A A43U A57U]      ≤ 0.5
13  GUUCCGUUGGCGUAAUGGUAACGCGUCUCCAUCCUACGGAGAAGACUGCGGGUUCGAGUCCCGUACGGAACG [C31A A37C]      0.665
14  GCUCCGUUGCCGUAAUGGUAACGAGUCUCCUUCCUCAGGAGACGACUGCGGGUUAGAGUCCCGUACGGAACG [U2C G10C C24A C31U A36C A43C C55A]      0.546
15  GUUCCGUUGGCGUAGUGGUAACGCGUCGCCCUCCUAAGGAGAAGACUGCGGGAUCAAGUCCCGUACGGAACG [A15G U28G U53A G56A]      ≤ 0.5
16  GUUCCGUUGGCGUAAUGGUAACGCGUCUCCUUCCUAAGGAGCAGACGGCGGCUUCGUGUCCCGUACGGAACG [C31U A42C U47G G52C A57U]      ≤ 0.5
17  GUUCGGUUGGCGGAAUGGUUACGCGUCUCCCUCCUAGGGAGAAGACUGCGGGUUCGAGUCCCGUACGGAACG [C5G U13G A20U A37G]      0.514
18  GUUCCGUUUGCGUAAUGGUAACGCGUUUACCUCCUAAGGAGAAGACUGCGGGUUCGAGUCCCGUACGGUACG [G9U C27U C29A A69U]      ≤ 0.5
19  GUUCCAUUGGCGUAAUGGUAACGCGUCUCACUCCUAAGAAGAAGACAGCGGGUUCGAGUCCCCUACGGAACG [G6A C30A G39A U47A G63C]      ≤ 0.5
20  GUUCCGUUGGCGUAAUGGUAACGCGUCUCCCUCCUAAGGAGAGGUUUGCGGGUUCGAGUCCCGUACGGAACG [A43G A45U C46U]      0.604
21  GUUCCGUUGGCGUAAUGGUAACGCGUCUCCCUCCUAAGGAGAAGACUGCGGGUUCGGGUCCUGUACGGAACG [A57G C62U]      0.781
